Every entry's value here was drawn from ChEMBL document CHEMBL4715714.

What IC50 was measured for each of the following?
# Test system: A2780
# assay summary: Cytotoxicity against human A2780 cells assessed as inhibition of cell proliferation incubated for 72 hrs by MTT assay
# Assay type: functional, cell-based
# experimental parameters: A2780, 72 h, read-out: pIC50 (converted)
Answers are plain numbers, in nM.

Known results for compounds:
[
  {
    "smiles representation": "COc1ccc(NC(=S)N/N=C/c2ccccc2O)cc1",
    "measured target": "A2780",
    "unit text": "nM",
    "readout value": 5370
  },
  {
    "smiles representation": "COc1ccc(NC(=S)N/N=C(\\C)c2ccccn2)cc1",
    "measured target": "A2780",
    "unit text": "nM",
    "readout value": 45.7
  },
  {
    "smiles representation": "COc1cc(N/N=C(\\C)c2ccccn2)ncn1",
    "measured target": "A2780",
    "unit text": "nM",
    "readout value": 132
  },
  {
    "smiles representation": "Cc1ccc(NC(=S)N/N=C/c2ccccn2)cc1",
    "measured target": "A2780",
    "unit text": "nM",
    "readout value": 47.9
  }
]

State recorded IC50 for all listed compounds.
1. O=[N+]([O-])c1ccc(NC(=S)N/N=C/c2ccccn2)cc1
2. C/C(=N\NC(=S)Nc1ccc(C)cc1)c1ccccn1

617
16.2

Give recorded IC50 with A2780 for the following compound: `COc1cc(N/N=C/c2ccccn2)ncn1`
1740

* * *

# Test system: KB-V1
# assay summary: Cytotoxicity against human KB-V1 cells assessed as inhibition of cell proliferation incubated for 72 hrs by MTT assay
# Format: functional, cell-based
# experimental parameters: KB-V1, 72 h, read-out: pIC50 (converted)
What IC50 was measured for each of the following?
Numbers only, in nM.

Known results for compounds:
[
  {
    "smiles representation": "O=C1Nc2ccccc2/C1=N/NC(=S)Nc1ccc([N+](=O)[O-])cc1",
    "IC50, nM": 4470
  },
  {
    "smiles representation": "C/C(=N\\Nc1nc2ccccc2s1)c1ccccc1O",
    "IC50, nM": 11500
  },
  {
    "smiles representation": "COc1ccc(NC(=S)N/N=C/c2ccccc2O)cc1",
    "IC50, nM": 5010
  },
  {
    "smiles representation": "C/C(=N\\Nc1nc2ccccc2s1)c1ccccn1",
    "IC50, nM": 295
  }
]

State recorded IC50 for all listed compounds.
1. C/C(=N\NC(=S)Nc1ccc(C)cc1)c1ccccn1
2. O=[N+]([O-])c1ccc(NC(=S)N/N=C/c2ccccn2)cc1
3. CCc1ccc(/C=N/Nc2nc3ccccc3s2)nc1
4. COc1ccc(NC(=S)N/N=C(\C)c2ccccn2)cc1
5. Cc1ccc(NC(=S)N/N=C2\C(=O)Nc3ccccc32)cc1
6. COc1cc(N/N=C(\C)c2ccccn2)ncn1
7. Cc1ccc(NC(=S)N/N=C/c2ccccn2)cc1
8. COc1ccc(NC(=S)N/N=C2\C(=O)Nc3ccccc32)cc1

1: 33.1; 2: 1780; 3: 1150; 4: 1050; 5: 3980; 6: 490; 7: 891; 8: 3980

* * *

# Test system: A2780 ADR
# assay summary: Cytotoxicity against human A2780adr cells assessed as inhibition of cell proliferation incubated for 72 hrs in presence of efflux pump inhibitor, Tariquidar by MTT assay
# Type: functional, cell-based
Active and inactive are the calls of the source. No cut-off for these calls is given here.

[
  {
    "smiles representation": "COc1cc(N/N=C(\\C)c2ccccn2)ncn1",
    "Activity": "Active"
  },
  {
    "smiles representation": "O=C1Nc2ccccc2/C1=N/NC(=S)Nc1ccc([N+](=O)[O-])cc1",
    "Activity": "inactive"
  },
  {
    "smiles representation": "CCc1ccc(/C=N/Nc2cc(OC)ncn2)nc1",
    "Activity": "Active"
  },
  {
    "smiles representation": "COc1ccc(NC(=S)N/N=C2\\C(=O)Nc3ccccc32)cc1",
    "Activity": "inactive"
  }
]

* * *

# assay summary: Cytotoxicity against human A2780adr cells assessed as inhibition of cell proliferation incubated for 72 hrs by MTT assay
# Format: functional, cell-based
# experimental parameters: A2780 ADR, read-out: IC50
measured endpoint: IC50 (µM)
Numbers only, in µM.

Known results for compounds:
[
  {
    "smiles representation": "O=C1Nc2ccccc2/C1=N/NC(=S)Nc1ccc([N+](=O)[O-])cc1",
    "IC50 (µM)": 8.78
  },
  {
    "smiles representation": "C/C(=N\\NC(=S)Nc1ccc(C)cc1)c1ccccn1",
    "IC50 (µM)": 0.021
  }
]

For `COc1ccc(NC(=S)N/N=C(\C)c2ccccc2N)cc1` , what is its reported IC50?
4.87

* * *

What IC50 was measured for each of the following?
# System: MES-SA
# assay summary: Cytotoxicity against human MES-SA cells transfected with mCherry fluorescent protein assessed as inhibition of cell proliferation incubated for 72 hrs by fluorescent assay
# Format: functional, cell-based
# experimental parameters: Homo sapiens, MES-SA, 72 h; read-out: pIC50 (converted)
Give bare numbers, in nM.

Known results for compounds:
[
  {
    "smiles representation": "C(=N\\Nc1nc2ccccc2s1)/c1ccccn1",
    "unit text": "nM",
    "readout value": 2690
  },
  {
    "smiles representation": "Oc1ccccc1/C=N/NC(=S)Nc1ccccc1",
    "unit text": "nM",
    "readout value": 11500
  },
  {
    "smiles representation": "CCc1ccc(/C=N/Nc2nc3ccccc3s2)nc1",
    "unit text": "nM",
    "readout value": 4270
  },
  {
    "smiles representation": "COc1ccc(NC(=S)N/N=C/c2cccc(C)n2)cc1",
    "unit text": "nM",
    "readout value": 4680
  },
  {
    "smiles representation": "C/C(=N\\NC(=S)Nc1ccccc1C(F)(F)F)c1ccccn1",
    "unit text": "nM",
    "readout value": 32.4
  }
]

State recorded IC50 for all listed compounds.
1. COc1cc(N/N=C/c2ccccn2)ncn1
2. Cc1ccc(O)c(/C=N/Nc2nc3ccccc3s2)c1

[2340, 85100]

State recorded IC50 for all listed compounds.
1. C(=N\Nc1ccccn1)/c1ccc2ccccc2n1
2. O=[N+]([O-])c1ccc(NC(=S)N/N=C/c2ccccn2)cc1
3. C/C(=N\Nc1nc2ccccc2s1)c1ccccc1O
4. COc1ccc(O)c(/C(C)=N/Nc2nc3ccccc3s2)c1
5. C/C(=N\Nc1ccccn1)c1ccccn1
6. Oc1ccccc1/C=N/Nc1nc2ccccc2s1
7. C/C(=N\NC(=S)Nc1cccc(C)c1)c1ccccn1
8. Cc1ccc(NC(=S)N/N=C/c2ccccn2)cc1

[776, 2690, 21400, 50100, 77.6, 26900, 31.6, 759]

State recorded IC50 for all listed compounds.
1. O=[N+]([O-])c1ccc(O)c(/C=N/Nc2nc3ccccc3s2)c1
2. FC(F)(F)c1cccc(NC(=S)N/N=C/c2ccccn2)c1

1. 3800
2. 832

* * *

# Test system: A2780
# assay summary: Cytotoxicity against human A2780 cells assessed as inhibition of cell proliferation incubated for 72 hrs by MTT assay
# Format: functional, cell-based
# experimental parameters: A2780, 72 h, read-out: IC50
measured endpoint: IC50 (µM)
Give bare numbers, in µM.

Known results for compounds:
[
  {
    "smiles representation": "O=C1Nc2ccccc2/C1=N/NC(=S)Nc1ccc([N+](=O)[O-])cc1",
    "measured target": "A2780",
    "unit text": "µM",
    "readout value": 25.7
  },
  {
    "smiles representation": "COc1cc(N/N=C(\\C)c2ccccn2)ncn1",
    "measured target": "A2780",
    "unit text": "µM",
    "readout value": 0.14
  }
]

State recorded IC50 for all listed compounds.
1. O=[N+]([O-])c1ccc(NC(=S)N/N=C/c2ccccn2)cc1
2. COc1ccc(NC(=S)N/N=C(\C)c2ccccn2)cc1
3. COc1ccc(NC(=S)N/N=C2\C(=O)Nc3ccc(OC(F)(F)F)cc32)cc1
4. COc1ccc(NC(=S)N/N=C2\C(=O)Nc3ccccc32)cc1
5. COc1ccc(NC(=S)N/N=C/c2ccccc2O)cc1

[0.67, 0.046, 3.39, 7.49, 5.47]

* * *

# Test system: A2780
# assay summary: Cytotoxicity against human A2780 cells assessed as inhibition of cell proliferation incubated for 72 hrs by MTT assay
# Assay type: functional, cell-based
# experimental parameters: A2780, 72 h, read-out: pIC50 (converted)
What IC50 was measured for each of the following?
Answers are plain numbers, in µM.

Known results for compounds:
[
  {
    "smiles representation": "Cc1ccc(NC(=S)N/N=C/c2ccccc2O)cc1",
    "measured target": "A2780",
    "unit text": "µM",
    "readout value": 5.01
  },
  {
    "smiles representation": "Cc1ccc(NC(=S)N/N=C2\\C(=O)Nc3ccccc32)cc1",
    "measured target": "A2780",
    "unit text": "µM",
    "readout value": 9.55
  },
  {
    "smiles representation": "C(=N\\Nc1nc2ccccc2s1)/c1ccccn1",
    "measured target": "A2780",
    "unit text": "µM",
    "readout value": 0.575
  }
]

State recorded IC50 for all listed compounds.
1. COc1ccc(NC(=S)N/N=C2\C(=O)Nc3ccccc32)cc1
2. CCc1ccc(/C=N/Nc2nc3ccccc3s2)nc1

1: 7.41; 2: 0.813
